B1: RNA-binding E3 ubiquitin-protein ligase MEX3C, residues 325 to 391; numbered along this chain, Q5U5Q3 (parent)
chain: GQTTVQVRVPYRVVGLVVGPKGATIKRIQQQTHTYIVTPSRDKEPVFEVTGMPENVDRAREEIEMHI

variants of: B1; assay: abundance fitness (aPCA) (normalised: wild type 0, dead -1); higher = more abundant; growth selection in yeast, the domain comes from the species named; settings: Homo sapiens
Classification field. Basis: abundance fitness. Definitions: zone 1 = under -0.8, zone 2 = from -0.8 up to -0.5, zone 3 = -0.5 and over

[[record]]
mutation_list = "E48F"
label_class = "zone 3"

[[record]]
mutation_list = "T32D"
label_class = "zone 2"


Lab note: which band did I36F land in? zone 1

Lab note: which band did V37A land in? zone 3

Lab note: which band did V49A land in? zone 2

Lab note: which band did K21E land in? zone 3

Lab note: which band did G51F land in? zone 2
